Every entry's value here was drawn from ChEMBL document CHEMBL5126562.

List of logD values.
assay: Lipophilicity, logD of compound at pH 7.4; format: physicochemical; details: buffer
API doc: respond with a numeric literal and nothing else, no unit.

>>> measured_result("N#Cc1cccc2ncn(CC(=O)NCc3ccc(C(F)(F)F)nc3N3CCCC3=O)c12")
1.8
>>> measured_result("O=C1CCCCN1c1cnc(NCc2c(F)ccc3c2CCO3)c2cn[nH]c(=O)c12")
1.9
>>> measured_result("Cc1nc(Nc2cccc(N3CCN(C)C3=O)n2)sc1-c1cc2c(c(S(C)(=O)=O)c1)C(=O)N([C@@H](C)C1CC1)C2")
3.4
>>> measured_result("Cc1nc(Nc2cccc(N3CCCCC3=O)n2)sc1-c1cc2c(c(S(=O)(=O)NC3COC3)c1)C(=O)N([C@@H](C)C(F)(F)F)C2")
3.8
>>> measured_result("COc1ccc(N2CCN(C)CC2)c(CN2CCCN(c3ccc(N4CCOCC4)cc3)C2=O)c1")
1.3

Fill blank: measured logD of the compound `O=C1CCCN1c1cnc(NCc2c(F)ccc3c2CCO3)n2cnnc12` is ____. 1.3

Moving on to the next compound: `Cc1nc(Nc2cccc(N3CCCCC3=O)n2)sc1-c1cc2c(c(S(=O)(=O)NC3COC3)c1)C(=O)N([C@@H](C)C1CC1)C2` 3.6
